Give IC50 for every item shown.
System: SMN2 mRNA
assay_remarks: Splicing RT-qPCR gene panel, SMN2 canonical junction (CJ) mRNA
Type: cell-based
assay_context: Homo sapiens; Table 8; larger gene panel, decrease in CJ mRNA levels

Exam item: Look up IC50 for this compound: `COc1c(-c2nc3cn(C4CCNCC4)nc3s2)cc2cn(C)nc2c1C`
Marked response: 1000 to 10000 nM

Exam item: Lookup `CN(C)C1CCN(c2cc3sc(-c4cc(F)c5nn(C)cc5c4)nc3s2)CC1`
Marked response: < 100 nM

Exam item: Lookup `Cc1cn2cc(-n3cc4sc(C5CCNCC5)cc4n3)cc(C)c2n1`
Marked response: 1000 to 10000 nM

Exam item: Lookup `Cc1cn2cc(-c3cc4cn(C5CCNCC5)nc4s3)nc(C)c2n1`
Marked response: 100 to 1000 nM

Exam item: Lookup `Cn1cc2cc(-c3nc4cn(C5CCNCC5)nc4s3)c(O)c(F)c2n1`
Marked response: < 100 nM

Exam item: Lookup `Cn1cc2cc(N3Cc4cc(C5CCNCC5)sc4C3=O)cc(F)c2n1`
Marked response: < 100 nM

Exam item: Lookup `Cc1nc2c(F)cc(-n3cc4sc(C5CCNCC5)cc4n3)cc2s1`
Marked response: 100 to 1000 nM

Exam item: Lookup `Cc1cn2cc(-c3nc4sc(C5CCNCC5)cc4s3)nc2c(C)n1`
Marked response: 100 to 1000 nM

Exam item: Lookup `Cc1cn2cc(-c3cc4cn(C5CCNCC5)nc4s3)cc(Cl)c2n1`
Marked response: < 100 nM

Exam item: Lookup Cc1cc(-c2cc3cn([C@H]4CCNC[C@H]4F)nc3s2)cc2cn(C)nc12 (single isomer, unassigned)
Marked response: 100 to 1000 nM

Exam item: Lookup `Cc1cn2nc(-n3cc4cc(C5CCNCC5)sc4n3)nc2c(C)n1`
Marked response: 1000 to 10000 nM

Exam item: Lookup `Cc1cc(-c2nc3cn(C4CCNCC4)nc3s2)cc2cn(C)nc12`
Marked response: < 100 nM
